5-HT2B (Homo sapiens) measurements of pKi, listed per entry.
Sequence (P41595 whole entry): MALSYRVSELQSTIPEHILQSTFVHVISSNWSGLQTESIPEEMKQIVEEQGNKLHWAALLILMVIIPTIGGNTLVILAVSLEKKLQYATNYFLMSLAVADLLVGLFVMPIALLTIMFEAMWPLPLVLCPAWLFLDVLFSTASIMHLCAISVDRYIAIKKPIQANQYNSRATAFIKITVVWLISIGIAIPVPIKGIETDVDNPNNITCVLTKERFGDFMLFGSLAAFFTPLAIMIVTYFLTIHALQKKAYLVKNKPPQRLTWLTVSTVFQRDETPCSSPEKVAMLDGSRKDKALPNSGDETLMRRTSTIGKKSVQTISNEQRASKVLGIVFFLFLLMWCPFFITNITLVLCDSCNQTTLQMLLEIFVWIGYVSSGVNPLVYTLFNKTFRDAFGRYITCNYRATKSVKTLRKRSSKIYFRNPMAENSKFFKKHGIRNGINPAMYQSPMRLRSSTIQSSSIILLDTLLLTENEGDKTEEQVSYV
Worth noting: pKi values are minus log10 of concentrations stated in mol/L.

CC(C)c1cccc(C(C)C)c1O [P, propofol] | 6.02

# input for lookup
# pKi lookup, item FC(F)OC(Cl)C(F)(F)F (centres unmarked) [I, isoflurane] 5.11
